assay: physchem; format: physicochemical; conditions: 37 °C, pH 7, aqueous buffer
measured-attribute: solubility

Query: Tell me the measured solubility of CCOC(=O)C1=C(COCCN)NC(C)=C(C(=O)OC)C1c1ccccc1Cl.CCS(=O)(=O)O (stereo not shown) [Ethanesulfonate, amlodipine ethanesulfonate] , please.
Result: > 200 mg/mL

---

assay: physchem; assay type: physicochemical; conditions: 37 °C, water
measured-attribute: solubility

Query: Suppose we examine the molecule CCOC(=O)C1=C(COCCN)NC(C)=C(C(=O)OC)C1c1ccccc1Cl.CCS(=O)(=O)O (stereo not shown) [Ethanesulfonate, amlodipine ethanesulfonate] ; what solubility value has been reported?
Result: > 200 mg/mL

---

assay: physchem; format: physicochemical; conditions: 37 °C, pH 2, aqueous buffer
measured-attribute: solubility

Query: Would you kindly share the measured solubility for CCOC(=O)C1=C(COCCN)NC(C)=C(C(=O)OC)C1c1ccccc1Cl.CCS(=O)(=O)O (stereo not shown) [Ethanesulfonate, amlodipine ethanesulfonate] ?
Result: > 200 mg/mL
